# System: HCT-116 colon
# test: NCI-60 one-dose screen, 48 h
# appliedConditions: 10 µM unless noted
# Description: Growth inhibition of the HCT-116 human tumor cell line is measured as a screen for anti-cancer activity. Cells are grown in 96 well plates and exposed to the test compound for 48 hours. Compounds are tested at a single concentration, which is 10^-5 M for most compounds. The reported endpoint is percent growth (GI% or GIPRCNT), where numbers from 0 - 100% represent growth inhibition, and numbers from -100% - 0 represent cell death. For example, a value of 40 represents 60% growth inhibition. […]
This is part of a sample that, as a whole, favours compounds with a hit. Of some 83,000 tested, about 20% had one in any assay. Active and inactive are the calls of the source. How the source made its calls: active means growth percent below 10; inactive means the rest.
Allowed answers: 1 (yes) = active, 0 (no) = inactive

Here are 5 compounds together with their reported answers.
# compound, targetOrTestSystem, className
data = [
    ("O=c1cc(-c2ccccc2)nc2sc(-c3c[nH]c4ccc(F)cc34)nn12", "HCT-116 colon", "0 (no)"),
    ("Cc1ccc(NC(=O)c2cccc(CN3CCN(C)CC3)c2)cc1Oc1ccc(-c2[nH]nc3ncnc(N)c23)cc1", "HCT-116 colon", "0 (no)"),
    ("COc1ccc(-c2nnc(SCc3ccc(O)c4ncccc34)n2-c2ccccc2)cc1", "HCT-116 colon", "1 (yes)"),
    ("CS(=O)(=O)c1nccc(-c2c(-c3ccc(F)c(OCCc4ccc(F)cc4)c3)nc3sccn23)n1", "HCT-116 colon", "0 (no)"),
    ("O=C(Nc1cc(F)cc2cccnc12)c1cnc(N2CCOCC2)cn1", "HCT-116 colon", "1 (yes)"),
]

Enquiry: What did this assay record as the result for COCCOc1ccc(-c2csc(NC(C)=O)n2)cc1NS(=O)(=O)c1cccc2c(N(C)C)cccc12 ?
Return: 0 (no)

Enquiry: What did this assay record as the result for CCCC(=O)NC(c1cccnc1)c1cc(C(C)=O)c2cccnc2c1O (centres undefined) ?
Return: 0 (no)

Enquiry: What did this assay record as the result for O=C(Cn1cc(CN2C(=O)c3ccc([N+](=O)[O-])cc3C2=O)nn1)Nc1ccccc1Br ?
Return: 0 (no)

Enquiry: What did this assay record as the result for CCN1C(=O)N(CC)C2C1NN=C1SC(c3ccccc3)=CC(=O)N12 (centres undefined) ?
Return: 0 (no)
